I'd appreciate it if you could supply pSTAT3 (nM) values for the items below.
# system_name: T1, IL-23 receptor on the surface of HEK-Blue IL-23 cells (UniProt Q5VWK5 24-629, limits assumed)
# T1 sequence (looked up): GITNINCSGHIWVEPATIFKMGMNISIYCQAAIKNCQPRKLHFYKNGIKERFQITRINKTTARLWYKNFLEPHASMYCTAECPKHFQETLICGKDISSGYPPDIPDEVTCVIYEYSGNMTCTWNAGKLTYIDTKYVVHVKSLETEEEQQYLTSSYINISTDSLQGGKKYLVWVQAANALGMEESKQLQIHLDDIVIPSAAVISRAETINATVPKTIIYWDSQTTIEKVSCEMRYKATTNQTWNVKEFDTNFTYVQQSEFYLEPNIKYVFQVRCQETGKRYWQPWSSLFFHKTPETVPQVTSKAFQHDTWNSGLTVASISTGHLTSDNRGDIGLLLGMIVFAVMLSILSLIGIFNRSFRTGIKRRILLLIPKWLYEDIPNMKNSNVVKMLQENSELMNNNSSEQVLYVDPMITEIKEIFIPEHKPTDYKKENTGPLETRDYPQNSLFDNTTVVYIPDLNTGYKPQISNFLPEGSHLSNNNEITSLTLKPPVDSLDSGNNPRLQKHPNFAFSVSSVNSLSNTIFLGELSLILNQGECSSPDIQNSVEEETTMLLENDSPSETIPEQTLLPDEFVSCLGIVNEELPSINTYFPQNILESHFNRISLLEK
# test: cell-based or functional assay
Starred links: 1 amine or outer side, 2 acyl side, 3 side chain; linkers in the order of their positions; H or OH if unused. Positions of bridges follow the written chain, without caps; N, C: chain ends. Non-standard residues stand in square brackets, D forms with d. Yde = (2S)-2-amino-3-[4-[2-(dimethylamino)ethoxy]phenyl]propanoic acid, CN(C)CCOc1ccc(C[C@H](N[*:1])C(=O)[*:2])cc1; 2Nal = N[C@@H](Cc1ccc2ccccc2c1)C(=O)O; AEF = NCCOc1ccc(C[C@H](N)C(=O)O)cc1; αMeL = CC(C)C[C@](C)(N)C(=O)O; Nmapt = not defined here; Ava = NCCCCC(=O)O
Unit nM implied. Number only.

Query: If you can, please state the reported pSTAT3 (nM) value of [Nmapt]CKWQC[AEF][2Nal][αMeL]EA[dL]-NH2 (lactam N-10; disulfide 2-6; not fully specified (residue 3); printed as Nmapt(§1)-C(§3)(@2)-K[aAc](@3)-W-Q-C(@2)-Yae-Nal-Mle-E(§1)-A-(D-Leu)-NH2; reading uncertain; also: Cys2 carboxyl joined to Lys3 epsilon-NH2 (isopeptide bond)) [Compound of SEQ ID NO: 44] .
Response: 42.5

Query: If you can, please state the reported pSTAT3 (nM) value of [Ava]CNTWQC[Yde][2Nal][αMeL]EN[dL]-NH2 (lactam N-11; disulfide 2-7; SMILES CC(C)C[C@@H](NC(=O)[C@H](CC(N)=O)NC(=O)[C@@H]1CCC(=O)NCCCCC(=O)N[C@H]2CSSC[C@H](NC(=O)[C@H](CCC(N)=O)NC(=O)[C@H](Cc3c[nH]c4ccccc34)NC(=O)[C@H]([C@@H](C)O)NC(=O)[C@H](CC(N)=O)NC2=O)C(=O)N[C@@H](Cc2ccc(OCCN(C)C)cc2)C(=O)N[C@@H](Cc2ccc3ccccc3c2)C(=O)N[C@@](C)(CC(C)C)C(=O)N1)C(N)=O) [Compound of SEQ ID NO: 10] .
Response: 25.8
